Numbers sourced from patent US20240239788A1.

# Tested On: KRAS G12D / Ras binding domain of C-RAF (Homo sapiens (Human), UniProt P01116, G12D)
# Sequence (P01116 other isoform, or with tags, fused parts or gaps G12D (already in the parent)): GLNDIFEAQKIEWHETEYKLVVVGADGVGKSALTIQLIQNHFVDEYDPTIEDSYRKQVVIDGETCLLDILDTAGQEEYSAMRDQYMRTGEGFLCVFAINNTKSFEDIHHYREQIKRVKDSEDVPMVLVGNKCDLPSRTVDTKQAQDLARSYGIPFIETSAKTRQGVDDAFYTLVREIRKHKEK
# Test Method Notes: RAS:RAF-RBD binding assay (cRaf), TR-FRET
# Condition Label: read-out: IC50 (nM) (cRaf); biotinylated KRAS G12D, GST-C-RAF RBD
Below, each entry is listed alongside its reported IC50.
Write it as a number; the unit nM goes unstated.

Below are worked cases with known answers.
input: # get_value(readout='IC50', item= C[C@]12CC[C@H](CN(c3nc(OC[C@@]45CCCN4C[C@H](F)C5)nc4c(F)c(-c5cc(O)cc6cccc(Cl)c56)ncc34)C1)N2 )
output: 57.5

input: I have this compound here, O=c1oc(-c2cc(O)cc3ccccc23)cc2nc(OCC3(CN4CCOCC4)CC3)nc(N3CC4CCC(C3)N4)c12 , and I need its recorded IC50.
output: 15900

input: # IC50 lookup, item CN(C)C[C@]1(COc2nc(N3CC4CCC(C3)N4)c3cc(Cl)c(-c4cc(O)cc5ccccc45)c(F)c3n2)CC1(F)F (atropisomer, axis not shown) [Example 11a]
output: 4240

input: IC50 lookup needed for COC1CC2CN(c3nc(OCC4(CN(C)C)CC4)nc4c(F)c(-c5cc(O)cc6ccccc56)c(F)cc34)CC1N2 (stereo not shown) , thanks.
output: 10800

More entries:
input: What IC50 value was documented for this compound, CN(C)C[C@]1(COc2nc(N3CC4CCC(C3)N4)c3cc(Cl)c(-c4cc(O)cc5ccccc45)c(F)c3n2)CC1(F)F (atropisomer, axis not shown) [Example 11b] ?
output: 7240

input: Need IC50, item C[C@@]12CC(O)[C@@](C)(CN(c3nc(OC[C@@]45CCCN4C[C@H](F)C5)nc4c(F)c(-c5cc(O)cc6cccc(Cl)c56)c(F)cc34)C1)N2 (stereo partly shown)
output: 49.4

input: Which IC50 reading was recorded for the compound Cc1cc2[nH]ncc2c(C2Cc3nc(OCC4(CN5CC[C@@H](F)C5)CC4)nc(N4C[C@H]5CC[C@@](C)(C4)N5)c3C(=O)N2)c1C(F)(F)F (single isomer, unassigned) [Ex. 98a] ?
output: 34200

###

# Tested On: KRAS protein containing G12D mutation (Homo sapiens (Human), UniProt P01116, G12D)
# Sequence (P01116 other isoform, or with tags, fused parts or gaps G12D (already in the parent)): as above
# Test Method Notes: SOS-catalyzed nucleotide exchange assay (GNE), TR-FRET
# Assay type: biochemical
# Condition Label: biotinylated KRAS G12D, SOS and GTP, 60-minute incubation
Could you please mark 1 (yes) for values of IC50 below 60 nM and 0 (no) for values at or above it?

Solved cases below.
input: I wonder whether C[C@]12CC[C@H](CN(c3nc(OCC4(CN5CCCC(O)(C(F)(F)F)C5)CC4)nc4c(F)c(-c5cc(O)cc6cccc(Cl)c56)c(F)cc34)C1)N2 (mixture of isomers) [Ex. 207] has IC50 below 60 nM. Can you tell?
output: 0 (no)

input: Lab note: IC50 threshold 60 nM. Does this molecule come in strictly under it? CN(C)CC1(COc2nc(N3CC4CC(O)C(C3)N4)c3cc(Cl)c(-c4cc(O)cc5ccccc45)c(F)c3n2)CC1 (single isomer, unassigned) [Example 22b]
output: 0 (no)

input: Could you please tell me whether IC50 recorded for C[C@]12CCC(CN(c3nc(OC[C@]4(CN[C@H]5C[C@@H](O)C5)CC4(F)F)nc4c(F)c(-c5cc(O)cc6cccc(Cl)c56)c(F)cc34)C1)N2 (single isomer, unassigned) [Ex. 216a] is less than 60 nM?
output: 1 (yes)

input: Problem: For the molecule CN(C)CC1(COc2nc(N3C[C@H]4NC(C)(C[C@H]4O)C3)c3cc(Cl)c(-c4cc(O)cc5ccccc45)c(F)c3n2)CC1 (stereo in doubt) , is IC50 under 60 nM?
output: 1 (yes)

Further cases:
input: In the record for Cc1nc(N)c(C#N)c(-c2c(F)cc3c(N4CC5CCC(C4)N5)nc(OC[C@@]45CCCN4C[C@H](F)C5)nc3c2F)c1C(F)(F)F (single isomer, unassigned) [Ex. 156a] , is IC50 less than 60 nM?
output: 1 (yes)

input: Determine whether this molecule shows IC50 lower than 60 nM (ties excluded): Oc1cc(-c2c(F)cc3c(N4CC5CC(O)C(C4)N5)nc(OCC4(CN5CCOCC5)CC4)nc3c2F)c2ccccc2c1 (single isomer, unassigned) [Example 16]
output: 1 (yes)

input: Field: below-cutoff. Rule: recorded IC50 strictly less than 60 nM. Subject: Nc1nc2c(-c3c(F)cc4c(N5CC6CCC(C5)N6)nc(OCC5(CN6CC[C@@H](F)C6)CC5)nc4c3F)ccc(F)c2s1
output: 1 (yes)
